- EXPERIMENTAL_SYSTEM: T1, APG293 (human CD95L-T4) (human)
- T1 chain: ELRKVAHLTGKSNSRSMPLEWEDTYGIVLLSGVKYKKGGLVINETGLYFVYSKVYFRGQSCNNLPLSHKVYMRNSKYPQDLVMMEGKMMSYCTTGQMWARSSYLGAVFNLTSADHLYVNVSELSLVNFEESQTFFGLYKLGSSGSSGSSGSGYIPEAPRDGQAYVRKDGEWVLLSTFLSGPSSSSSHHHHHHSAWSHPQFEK
- TEST_METHOD_NOTES: cell-based or functional assay
READOUT_LABEL: EC50, Assay 1: antagonism of CD95L-T4-induced apoptosis on Jurkat A3 cells (ng/mL)
Output spec: scalar in ng/mL, unitless text.

EC50, Assay 1: antagonism of CD95L-T4-induced apoptosis on Jurkat A3 cells measured on scFv-minibody SEQ ID 40 (scFv) scFv: EVQLVESGGGLVQPGGSLRLSCAASGFSFSSGYDMSWVRQAPGKGLEWVSAIDTDNDATYYADSVKGRFTISKDSSKNTLYLQMNSLRAEDTAVYYCARTHGDYVAFKLWGQGTLVTVSGGGSGGGSGGGSGGGSDIQMTQSPSSLSASVGDRVTITCQSSQSVYKNNDLSWYQQKPGKAPKLLIYQASKLASGVPSRFSGSGSGTDFTLTISSLQPEDFATYYCAGGYTASIYAFGQGTKVEIKGSGSSGQPREPQVYTLPPSREEMTKNQVSLTCLVKGFYPSDIAVEWESQGSPENNYKTTPPVLDSDGSFFLYSKLTVDKSRWQQGNVFSCSVMHEALHNHYTQKSLSLSPGSSSSSSAWSHPQFEK = 532
